Test system: Oligodendrocyte progenitor cells (OPCs)
Assay: In vitro OPC differentiation assay, GPR17 expression (immunocytochemistry)
Settings: 3 μM (10× concentration, final 0.3 μM); 72 hours; fold change over vehicle
# thresholds on GPR17 Fold Induction (Over Vehicle; 3 μM) define classes: bucket 1 (below 3), bucket 2 (3 to below 6), bucket 3 (6 or more)

- COMPOUND: "Cn1cc(-c2ccc3c(N4CCN(c5ncc(Cc6ncco6)cn5)CC4)cnn3c2)cn1"
  ANSWER_LABEL: "bucket 2"
- COMPOUND: "Cn1cc(-c2ccc3c(N4CCN(c5ncc(Cc6cscn6)cn5)CC4)cnn3c2)cn1"
  ANSWER_LABEL: "bucket 2"
- COMPOUND: "Cc1cccc(Cc2cnc(N3CCN(c4cnn5cc(-c6cnn(C)c6)ccc45)CC3)nc2)c1"
  ANSWER_LABEL: "bucket 2"
- COMPOUND: "Cn1cc(-c2ccc3c(NCCCNc4ncc(Cc5ccccc5)cn4)cnn3c2)cn1"
  ANSWER_LABEL: "bucket 1"
- COMPOUND: "COc1cccc(Cc2cnc(N3CCN(c4cnn5cc(-c6cnn(C)c6)ccc45)CC3)nc2)c1"
  ANSWER_LABEL: "bucket 3"
- COMPOUND: "CN(Cc1ccccc1)C(=O)C1CC=C(c2cnn3cc(-c4cnn(C)c4)ccc23)C1 (stereo not shown)"
  ANSWER_LABEL: "bucket 3"
- COMPOUND: "Cn1cc(-c2ccc3c(N4CCN(C(=O)OCc5ccc(C#N)cc5)CC4)cnn3c2)cn1"
  ANSWER_LABEL: "bucket 3"
- COMPOUND: "Cn1cc(-c2cnc3c(N4CCN(c5ncc(C(O)c6ccc(F)cc6)cn5)CC4)cnn3c2)cn1 (stereo not shown)"
  ANSWER_LABEL: "bucket 3"
- COMPOUND: "COCCn1cc(-c2cc3ncc(N4CCN(C(=O)OC(C)(C)C)CC4)n3cn2)cn1"
  ANSWER_LABEL: "bucket 1"
- COMPOUND: "CCCCC(O)c1cnc(N2CCN(c3cnn4cc(-c5cnn(C)c5)ccc34)CC2)nc1 (stereo not shown)"
  ANSWER_LABEL: "bucket 3"
- COMPOUND: "Cn1cc(-c2ccc3c(N4CCN(c5ncc(C(=O)C(F)(F)F)cn5)CC4)cnn3c2)cn1"
  ANSWER_LABEL: "bucket 3"
- COMPOUND: "Cn1nnc(-c2ccc3c(N4CCN(C(=O)OC(C)(C)C)CC4)cnn3c2)n1"
  ANSWER_LABEL: "bucket 1"
- COMPOUND: "CC(C)(C)OC(=O)N1CCN(c2cnn3cc(C4CCOC4)ccc23)CC1 (stereo not shown)"
  ANSWER_LABEL: "bucket 1"
- COMPOUND: "Cn1cc(-c2ccc3c(N4CCCN(c5ncc(Cc6ccccc6)cn5)CC4)cnn3c2)cn1"
  ANSWER_LABEL: "bucket 2"
- COMPOUND: "COCCn1cc(-c2ccn3c(N4CCCN(C(=O)OC(C)(C)C)CC4)cnc3n2)cn1"
  ANSWER_LABEL: "bucket 1"
- COMPOUND: "CN1CCC(c2ccc3c(N4CCN(C(=O)OC(C)(C)C)CC4)cnn3c2)C1 (stereo not shown)"
  ANSWER_LABEL: "bucket 1"
- COMPOUND: "CC(C)Cc1cnc(N2CCN(c3cnn4cc(-c5cnn(C)c5)ccc34)CC2)nc1"
  ANSWER_LABEL: "bucket 3"
- COMPOUND: "Cn1cc(-c2ccc3c(C4=CCC(COc5ccccc5)CC4)cnn3c2)cn1 (stereo not shown)"
  ANSWER_LABEL: "bucket 1"
- COMPOUND: "CC(C)(C)OC(=O)N1CCN(c2cnn3cc(C4CCCC4)ccc23)CC1"
  ANSWER_LABEL: "bucket 1"
- COMPOUND: "Cn1cc(-c2ccc3c(N4CCN(c5ncc(Cc6c[nH]c7ccccc67)cn5)CC4)cnn3c2)cn1"
  ANSWER_LABEL: "bucket 3"

Where do the numbers come from? From patent US20250129067A1.
